- System: MS2 coat protein
- method.notes: apparent KD of MS2 coat protein; designed switch direction (-1 OFF switch, 1 ON switch): -1; higher = weaker reporter binding
- experimental.parameters: input ligand: FMN 200 uM
endpoint: apparent KD of MS2 coat protein (nM)
State the answer as a number, implicitly in nM.

Item under review: CGAGGUAGAGGAUAUACGUGGAAAUAGAUUCAUGUUAAUCUACAUGAGGAUCACCCAUGUAGAAGGCUAUAGCG [JR_Ex2_Sub075] (Eterna round: R97, puzzle: Exclusion 2) . Reported apparent KD of MS2 coat protein?
80

Need apparent KD of MS2 coat protein, item CCGAAGUCCUGCGGAGUUCACAUGAGGAUCACCCAUGUAGGCGAGGAUAUUUAUGAUACAUGAGUAAAGAAGGCGUCUGGUAAA [Eternabot solution 26] (Eterna round: R96, puzzle: Exclusion NG 3)
40.7

Dear colleague, I am looking for the recorded apparent KD of MS2 coat protein of the following sequence: GGUCUACAUGAGGAUCACCCAUGUAAGGAUAUCUACAUUGAAGCUUCGGCUUCAAUGUAGAGAAGGUGCAUAAU [E1/11-B1] (Eterna round: R97, puzzle: Exclusion 1)
37.3

Returns the measured apparent KD of MS2 coat protein for the input sequence. Input: UUGUUAUAUGUAGGAUAUGCAUGUUAUUAUUAUGCAGAAGGACAUGAGGAUCACCCAUGUGUAUUAUUAUUAUAUAUUAUAUAU [Title] (Eterna round: R96, puzzle: Exclusion NG 1)
21.2

Query (sequence): UUGGUGUCAGGAUAUGCACAGGUCGCACAAAUUGCAGCCUAGCAGAAGGGACAUGAGGAUCACCCAUGUACUCU [EX4 B.21] (Eterna round: R97, puzzle: Exclusion 4) ; field requested: apparent KD of MS2 coat protein
30

For the sequence shown here, AGCGAAGAGACAGGAUAUGAGAAUAGAUAGAGCUCAGAAGGGUCACAUGAGGAUCACCCAUGUAAAGUCUUGAGGCUGCGUGGU [Prohibition 10 - Jieux - Exclusion NG 1] (Eterna round: R96, puzzle: Exclusion NG 1) , give the reported apparent KD of MS2 coat protein.
123

Suppose we examine the sequence ACAUGAGGAUCACCCAUGUAAUCAUGAUGGCUGAUGUAGAGCUAGGAUAUGAGUGGCUUUCUAUCUCAGAAGGAGCAAGACUGG [Deportation 40 - Jieux - Exclusion NG 3] (Eterna round: R96, puzzle: Exclusion NG 3) ; what apparent KD of MS2 coat protein value has been reported?
44.1

Look at this sequence and give its reported apparent KD of MS2 coat protein. GGGCCCGGUGUGAGGAUAUGAGUUCGGAAAUGAGCUUAGAAGGCACAUGAGGAUCACCCAUGUAAGCCGGGCCC [-34.2, -32.1 kcal, A 26%, 1-0] (Eterna round: R97, puzzle: Brourd's mod of Exclusion 4)
14.3

Look at this sequence and give its reported apparent KD of MS2 coat protein. UACAUGAGGAUCACCCAUGUUUUGUCGUGUAUGGUAUUUAUCUAGGAUAUCAAGUUAGUUAUUUAUGAGAAGGAGAAUAUUAAU [JMF's solution 29] (Eterna round: R96, puzzle: Exclusion NG 3)
42.5

Recorded apparent KD of MS2 coat protein of ACGCGAUAUGGCGUAACGCGACAUGAGGAUCACCCAUGUAACGAGGAUAUGAUCUCGAGAGAGGGUCAGAAGGCGUUACAAUAU [Eternabot solution 23] (Eterna round: R96, puzzle: Exclusion NG 3) , please.
130

// returns reported apparent KD of MS2 coat protein for input AUAUUGUGAGGAUAUGAACUUAGUAUCGAAAGAUACUAAGUACAGAAGGCACAUGAGGAUCACCCAUGUUUCUC [Long static hairpin v2] (Eterna round: R97, puzzle: Exclusion 4)
418

Please report the recorded apparent KD of MS2 coat protein for CCUUAGCGAGGAUAUACAUGAGGAUCACCCAUGUGAUCCUAAGGCUGAUCAAGCCUAUGUAGAAGGCGCAAAUC [salish99_ex3_r4_003] (Eterna round: R97, puzzle: Exclusion 3) .
180

Look up apparent KD of MS2 coat protein for this sequence: CACCUGAAGAGAGGAUAUGAUACAUGAGGAUCACCCAUGUAAUAAAUGAGAAUUUCGAAUGUAAUUCAGAAGGCUCGAUAAGGC [Ostricism 100 - Jieux - Exclusion NG 2] (Eterna round: R96, puzzle: Exclusion NG 2)
121

Please look up its apparent KD of MS2 coat protein: GGAUCACAUGUGAGGAUAUGCUGGUCCUUGGAUCAGCAGAAGGCACAUGAGGAUCACCCAUGUGAUCAAGAUCC [Eli bmx4 4.78] (Eterna round: R97, puzzle: Brourd's mod of Exclusion 4)
22.2
